Collected Survival condition (survival rates/%) values appear next to each entry.
Tested on: zebrafish
Experiment: Toxicity to zebrafish, semi-static method, 96 hours
Settings: 0.5 ppm, 8 h
State just the number; it will be interpreted in %.

Take a look at these entries with their results.
- Compound: "CC[C@H](C)C1O[C@]2(C=C[C@@H]1C)C[C@@H]1C[C@@H](C/C=C(\\C)[C@@H](O[C@H]3C[C@H](OC)[C@@H](O[C@H]4C[C@H](OC)[C@H](NC)[C@H](C)O4)[C@H](C)O3)[C@@H](C)/C=C/C=C3\\CO[C@@H]4[C@H](O)C(C)=C[C@@H](C(=O)O1)[C@]34O)O2.O=C(O)c1ccccc1 (stereo partly shown) [Methylamino avermectin benzoate, reference compound]"
  Unit String: "%"
  Numeric Result: 0
- Compound: "CC[C@H]1O[C@]2(CC[C@@H]1C)C[C@@H]1C[C@@H](C/C=C(\\C)[C@@H](O[C@H]3C[C@H](OC)[C@@H](O[C@H]4C[C@H](OC)[C@@H](O)[C@H](C)O4)[C@H](C)O3)[C@@H](C)/C=C/C=C3\\CO[C@@H]4[C@H](O)C(C)=C[C@@H](C(=O)O1)[C@]34O)O2"
  Unit String: "%"
  Numeric Result: 100
- Compound: "CC[C@H](C)[C@H]1O[C@]2(C=C[C@@H]1C)C[C@@H]1C[C@@H](C/C=C(\\C)[C@@H](O[C@H]3C[C@H](OC)[C@@H](O[C@H]4C[C@H](OC)[C@@H](O)[C@H](C)O4)[C@H](C)O3)[C@@H](C)/C=C/C=C3\\CO[C@@H]4[C@H](O)C(C)=C[C@@H](C(=O)O1)[C@]34O)O2 [Avermectin, reference compound]"
  Unit String: "%"
  Numeric Result: 0

Now turn to the next compound.
// fetch Survival condition (survival rates/%); item: COC1CC(OC2C(C)OC(OC3C(C)=CCC4CC(CC5(CCC(C)C(C)O5)O4)OC(=O)C4C=C(C)C(O)C5OCC(=CC=CC3C)C45O)CC2OC)OC(C)C1O (stereo not shown) ; system: zebrafish
100

###

Collected Survival condition (survival rates/%) values appear next to each entry.
Test system: allogynogenetic crucian carp
Experiment: Toxicity to allogynogenetic crucian carp, semi-static method, 96 hours
Format: in vivo
Conditions: allogynogenetic crucian carp, 1.0 ppm, 8 h
State just the number; it will be interpreted in %.

- Compound: "COC1CC(OC2C(C)OC(OC3C(C)=CCC4CC(CC5(CCC(C)C(C)O5)O4)OC(=O)C4C=C(C)C(O)C5OCC(=CC=CC3C)C45O)CC2OC)OC(C)C1O (stereo not shown) [Tenvermectin A, tenvermectin A]"
  Survival condition (survival rates/%): 100
- Compound: "CC[C@H]1O[C@]2(CC[C@@H]1C)C[C@@H]1C[C@@H](C/C=C(\\C)[C@@H](O[C@H]3C[C@H](OC)[C@@H](O[C@H]4C[C@H](OC)[C@@H](O)[C@H](C)O4)[C@H](C)O3)[C@@H](C)/C=C/C=C3\\CO[C@@H]4[C@H](O)C(C)=C[C@@H](C(=O)O1)[C@]34O)O2 [Tenvermectin B, tenvermectin B]"
  Survival condition (survival rates/%): 75

// fetch Survival condition (survival rates/%) given entry CC[C@H](C)[C@H]1O[C@]2(C=C[C@@H]1C)C[C@@H]1C[C@@H](C/C=C(\C)[C@@H](O[C@H]3C[C@H](OC)[C@@H](O[C@H]4C[C@H](OC)[C@@H](O)[C@H](C)O4)[C@H](C)O3)[C@@H](C)/C=C/C=C3\CO[C@@H]4[C@H](O)C(C)=C[C@@H](C(=O)O1)[C@]34O)O2 [Avermectin, reference compound]
0

// fetch Survival condition (survival rates/%) given entry CC[C@H](C)C1O[C@]2(C=C[C@@H]1C)C[C@@H]1C[C@@H](C/C=C(\C)[C@@H](O[C@H]3C[C@H](OC)[C@@H](O[C@H]4C[C@H](OC)[C@H](NC)[C@H](C)O4)[C@H](C)O3)[C@@H](C)/C=C/C=C3\CO[C@@H]4[C@H](O)C(C)=C[C@@H](C(=O)O1)[C@]34O)O2.O=C(O)c1ccccc1 (stereo partly shown) [Methylamino avermectin benzoate, reference compound]
0

###

Collected Survival condition (survival rates/%) values appear next to each entry.
Test system: allogynogenetic crucian carp
Experiment: Toxicity to allogynogenetic crucian carp, semi-static method, 96 hours
Format: in vivo
Details: allogynogenetic crucian carp, 0.5 ppm, 8 h

- Compound: "CC[C@H]1O[C@]2(CC[C@@H]1C)C[C@@H]1C[C@@H](C/C=C(\\C)[C@@H](O[C@H]3C[C@H](OC)[C@@H](O[C@H]4C[C@H](OC)[C@@H](O)[C@H](C)O4)[C@H](C)O3)[C@@H](C)/C=C/C=C3\\CO[C@@H]4[C@H](O)C(C)=C[C@@H](C(=O)O1)[C@]34O)O2 [Tenvermectin B, tenvermectin B]"
  Result: "100%"
- Compound: "CC[C@H](C)[C@H]1O[C@]2(C=C[C@@H]1C)C[C@@H]1C[C@@H](C/C=C(\\C)[C@@H](O[C@H]3C[C@H](OC)[C@@H](O[C@H]4C[C@H](OC)[C@@H](O)[C@H](C)O4)[C@H](C)O3)[C@@H](C)/C=C/C=C3\\CO[C@@H]4[C@H](O)C(C)=C[C@@H](C(=O)O1)[C@]34O)O2 [Avermectin, reference compound]"
  Result: "0%"
- Compound: "COC1CC(OC2C(C)OC(OC3C(C)=CCC4CC(CC5(CCC(C)C(C)O5)O4)OC(=O)C4C=C(C)C(O)C5OCC(=CC=CC3C)C45O)CC2OC)OC(C)C1O (stereo not shown) [Tenvermectin A, tenvermectin A]"
  Result: "100%"

Now turn to the next compound.
// fetch Survival condition (survival rates/%) given entry CC[C@H](C)C1O[C@]2(C=C[C@@H]1C)C[C@@H]1C[C@@H](C/C=C(\C)[C@@H](O[C@H]3C[C@H](OC)[C@@H](O[C@H]4C[C@H](OC)[C@H](NC)[C@H](C)O4)[C@H](C)O3)[C@@H](C)/C=C/C=C3\CO[C@@H]4[C@H](O)C(C)=C[C@@H](C(=O)O1)[C@]34O)O2.O=C(O)c1ccccc1 (stereo partly shown) [Methylamino avermectin benzoate, reference compound]
0%

###

Tested on: allogynogenetic crucian carp
Assay: Toxicity to allogynogenetic crucian carp, semi-static method, 96 hours
Format: in vivo
Conditions: allogynogenetic crucian carp, 2.0 ppm, 8 h
Experimental Endpoint: Survival condition (survival rates/%)
State just the number; it will be interpreted in %.

// fetch Survival condition (survival rates/%) given entry CC[C@H](C)C1O[C@]2(C=C[C@@H]1C)C[C@@H]1C[C@@H](C/C=C(\C)[C@@H](O[C@H]3C[C@H](OC)[C@@H](O[C@H]4C[C@H](OC)[C@H](NC)[C@H](C)O4)[C@H](C)O3)[C@@H](C)/C=C/C=C3\CO[C@@H]4[C@H](O)C(C)=C[C@@H](C(=O)O1)[C@]34O)O2.O=C(O)c1ccccc1 (stereo partly shown) [Methylamino avermectin benzoate, reference compound]
0

// fetch Survival condition (survival rates/%) given entry CC[C@H](C)[C@H]1O[C@]2(C=C[C@@H]1C)C[C@@H]1C[C@@H](C/C=C(\C)[C@@H](O[C@H]3C[C@H](OC)[C@@H](O[C@H]4C[C@H](OC)[C@@H](O)[C@H](C)O4)[C@H](C)O3)[C@@H](C)/C=C/C=C3\CO[C@@H]4[C@H](O)C(C)=C[C@@H](C(=O)O1)[C@]34O)O2 [Avermectin, reference compound]
0

// fetch Survival condition (survival rates/%) given entry COC1CC(OC2C(C)OC(OC3C(C)=CCC4CC(CC5(CCC(C)C(C)O5)O4)OC(=O)C4C=C(C)C(O)C5OCC(=CC=CC3C)C45O)CC2OC)OC(C)C1O (stereo not shown) [Tenvermectin A, tenvermectin A]
100

// fetch Survival condition (survival rates/%) given entry CC[C@H]1O[C@]2(CC[C@@H]1C)C[C@@H]1C[C@@H](C/C=C(\C)[C@@H](O[C@H]3C[C@H](OC)[C@@H](O[C@H]4C[C@H](OC)[C@@H](O)[C@H](C)O4)[C@H](C)O3)[C@@H](C)/C=C/C=C3\CO[C@@H]4[C@H](O)C(C)=C[C@@H](C(=O)O1)[C@]34O)O2 [Tenvermectin B, tenvermectin B]
20

###

Collected Survival condition (survival rates/%) values appear next to each entry.
Test system: zebrafish
Experiment: Toxicity to zebrafish, semi-static method, 96 hours
Conditions: 1.0 ppm, 8 h
Procedure: Test agents: avermectin, milbemycin, ivermectin, tenvermectin A and tenvermectin B were all from Zhejiang Hisun Pharmaceutical Co., Ltd. The samples were formulated into 50 mg/ml mother liquors with DMF. […] Test methods: semi-static method. […] The fish mortality rate was recorded for the first 8 hours and at 24, 48, 72 and 96 hours, and the dead fish were removed in time.
State just the number; it will be interpreted in %.

Take a look at these entries with their results.
- Compound: "COC1CC(OC2C(C)OC(OC3C(C)=CCC4CC(CC5(CCC(C)C(C)O5)O4)OC(=O)C4C=C(C)C(O)C5OCC(=CC=CC3C)C45O)CC2OC)OC(C)C1O (stereo not shown) [Tenvermectin A, tenvermectin A]"
  Assayed Target: "zebrafish"
  Survival condition (survival rates/%): 100
- Compound: "CC[C@H]1O[C@]2(CC[C@@H]1C)C[C@@H]1C[C@@H](C/C=C(\\C)[C@@H](O[C@H]3C[C@H](OC)[C@@H](O[C@H]4C[C@H](OC)[C@@H](O)[C@H](C)O4)[C@H](C)O3)[C@@H](C)/C=C/C=C3\\CO[C@@H]4[C@H](O)C(C)=C[C@@H](C(=O)O1)[C@]34O)O2 [Tenvermectin B, tenvermectin B]"
  Assayed Target: "zebrafish"
  Survival condition (survival rates/%): 53
- Compound: "CC[C@H](C)[C@H]1O[C@]2(C=C[C@@H]1C)C[C@@H]1C[C@@H](C/C=C(\\C)[C@@H](O[C@H]3C[C@H](OC)[C@@H](O[C@H]4C[C@H](OC)[C@@H](O)[C@H](C)O4)[C@H](C)O3)[C@@H](C)/C=C/C=C3\\CO[C@@H]4[C@H](O)C(C)=C[C@@H](C(=O)O1)[C@]34O)O2 [Avermectin, reference compound]"
  Assayed Target: "zebrafish"
  Survival condition (survival rates/%): 0

Now turn to the next compound.
// fetch Survival condition (survival rates/%) given entry CC[C@H](C)C1O[C@]2(C=C[C@@H]1C)C[C@@H]1C[C@@H](C/C=C(\C)[C@@H](O[C@H]3C[C@H](OC)[C@@H](O[C@H]4C[C@H](OC)[C@H](NC)[C@H](C)O4)[C@H](C)O3)[C@@H](C)/C=C/C=C3\CO[C@@H]4[C@H](O)C(C)=C[C@@H](C(=O)O1)[C@]34O)O2.O=C(O)c1ccccc1 (stereo partly shown) [Methylamino avermectin benzoate, reference compound]
0
